# Tested on: SK-MEL-2
# METHOD_NOTES: NCI tumour cell line growth inhibition, 48 h
Active and inactive are the calls of the source. Cut-off read from the data, not from the text of the source: active = GI50 up to about 1.1 µM and inactive = higher.
Please reply with one of these outcomes: t for active, f for inactive

Sample answers from the record:
CC(=O)O[C@H]1[C@@H](N2CCCCC2)C[C@H]2[C@@H]3CC=C4C[C@@H](N5CCCC5)CC[C@]4(C)[C@H]3CC[C@@]21C = f
O=c1c2nc(-c3ccccc3)oc2n(-c2ccccc2)c(=O)n1-c1ccccc1 = f
CC(C)(C)OC(=O)Nc1cc(-c2ccccc2)co1 = f
Nc1sccc1S(=O)(=O)c1ccsc1N = f
Cc1cc(C)c(C2=NOC(c3ccccc3)(c3cc(=O)n(-c4ccccc4)s3)O2)c(C)c1 (stereo not drawn) = f
CCCCCCCCCCCCC(O)C(=O)O (stereo not drawn) = f

Problem: Dear all, I need the recorded test outcome for COC(=O)C1(SC)C2CCC3C2CCC31 (stereo not drawn) , thank you.
Result: f

Problem: One more molecule: CCOC(=O)C(NC(=O)CC(C)C)(Nc1ccc(C(F)(F)F)cc1)C(F)(F)F (stereo not drawn)
Result: f

Problem: One more molecule: `C#C[C@]1(O)CC[C@H]2[C@@H]3CCC4=C/C(=N/CCOC(=O)c5cccc6c(=O)c7ccccc7[nH]c56)CC[C@@H]4[C@H]3CC[C@@]21C`
Result: f

Problem: One more molecule: O=C1C(F)=CC(COC(c2ccccc2)(c2ccccc2)c2ccccc2)OC1n1cc(F)c(=O)[nH]c1=O (stereo not drawn)
Result: f

Problem: One more molecule: `O=C1C[C@H](c2ccc(O)c(O)c2)Oc2cc(O)cc(O)c21`
Result: f

Problem: One more molecule: C[N+](C)(C)CC1CCCCC1O (stereo not drawn)
Result: f

Problem: One more molecule: [O-][S+]1c2ccccc2N=C(c2cccc3ccccc23)CC1c1cccc2ccccc12 (stereo not drawn)
Result: f

====

# System: MDA-MB-231
# METHOD_NOTES: NCI tumour cell line growth inhibition, 48 h
Active and inactive are the calls of the source. No stated cut-off is given here; in the data, active = GI50 up to about 1.1 µM and inactive = higher.
Please reply with one of these outcomes: y for active, n for inactive

Sample answers from the record:
CC(=O)C1=CN=C2C(=O)N(c3ccccc3)N(C)C12C (stereo unspecified) = n
O=C(OCCNC(=O)N1CC1)OCCNC(=O)N1CC1 = n
N=c1oc2ccccc2cc1C(=O)NC12CC3CC(CC(C3)C1)C2 = n
NC(Cc1ccc(S(=O)(=O)O)cc1)C(=O)NC(Cc1ccc(S(=O)(=O)O)cc1)C(=O)O (stereo unspecified) = n
Cc1ccccc1[P+](C)(c1ccccc1C)c1ccccc1C = n
COc1ccc(C2=NN(C(=O)c3ccc(Cl)cc3)C(O)(c3cc(F)c(Cl)cc3Cl)C2)cc1 (stereo unspecified) = n
COc1ccc(-c2nc(N)c(C#N)c3c2CCSc2ccc(C)cc2-3)cc1OC = n
COC(=O)CCCC(=O)NC1=C(Nc2ccccc2)C(=O)c2ccccc2C1=O = n

Problem: Dear all, I need the recorded test outcome for CN(N=O)C(=O)N[C@H]1C(O)O[C@H](CO)[C@@H](O)[C@@H]1O (stereo partly specified) , thank you.
Result: n

Problem: One more compound: `Cc1ccc(S(=O)(=O)N2CCN(S(=O)(=O)c3ccc(C)cc3)CCN(S(=O)(=O)c3ccc(C)cc3)Cc3cc(Br)c(Br)cc3CN(S(=O)(=O)c3ccc(C)cc3)CC2)cc1`
Result: n

Problem: One more compound: `CC(C)[Si](OC1=CCC[C@H]2NC(=O)[C@@H](Cc3ccc([N+](=O)[O-])cc3)[C@@]12C)(C(C)C)C(C)C`
Result: n

Problem: One more compound: `C[N+](CCCl)(CCCl)Cc1cccc2cccc([N+](=O)[O-])c12`
Result: n

Problem: One more compound: `COC(=O)C[C@@H]1C(C)(C)[C@@H]2O[C@@]34C[C@@H]2C(=O)[C@]1(C)[C@H]3CC[C@@]1(C)[C@H](c2ccoc2)OC(=O)C[C@]14O`
Result: n

Problem: One more compound: `CN(C)CCNCCCNc1c2ccccc2nc2cccc([N+](=O)[O-])c12`
Result: y

Problem: One more compound: COC(=O)C1C(OS(=O)(=O)O)CCC2CN3CCc4c([nH]c5ccccc45)C3CC21 (stereo unspecified)
Result: n
